Could you please report measured pKi for the items listed next?
Molecular target: human GlyT1c transporter (Homo sapiens)
Sequence (P48067 whole entry): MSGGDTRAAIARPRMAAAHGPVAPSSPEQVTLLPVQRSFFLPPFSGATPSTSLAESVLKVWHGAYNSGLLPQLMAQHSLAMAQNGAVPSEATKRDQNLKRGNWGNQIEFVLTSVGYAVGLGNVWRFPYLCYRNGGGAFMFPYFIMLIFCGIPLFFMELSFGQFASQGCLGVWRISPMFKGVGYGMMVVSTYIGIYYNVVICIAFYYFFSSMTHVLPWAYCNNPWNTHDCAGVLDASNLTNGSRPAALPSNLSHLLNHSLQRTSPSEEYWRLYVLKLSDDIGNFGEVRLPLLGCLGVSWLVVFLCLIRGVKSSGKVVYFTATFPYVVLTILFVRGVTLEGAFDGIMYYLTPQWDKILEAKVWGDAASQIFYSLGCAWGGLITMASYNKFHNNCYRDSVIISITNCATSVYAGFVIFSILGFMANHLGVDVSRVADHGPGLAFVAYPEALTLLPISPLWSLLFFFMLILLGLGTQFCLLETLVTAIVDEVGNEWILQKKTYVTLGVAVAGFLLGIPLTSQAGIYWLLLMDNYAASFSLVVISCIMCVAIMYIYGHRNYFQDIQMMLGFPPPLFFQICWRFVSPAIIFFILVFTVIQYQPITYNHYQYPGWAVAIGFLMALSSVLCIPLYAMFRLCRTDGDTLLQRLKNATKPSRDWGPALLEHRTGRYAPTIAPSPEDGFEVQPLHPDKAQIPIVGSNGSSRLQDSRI
Assay: Radioligand binding assays using recombinant CHO cell membranes expressing human GlyT1
Conditions: Ki, radioligand binding to human GlyT1c transporter-expressing CHO cell membranes
pKi: −log10 of the molar value.

Worked set:
>>> readoutvalue("Cn1cnc(S(=O)(=O)N2C[C@H](c3ccc(F)cc3)[C@@H](N3CCS(=O)(=O)CC3)C2)c1 [Example 864]")
"≥ 5.00"
>>> readoutvalue("Cn1cnc(S(=O)(=O)N2CC(Nc3cccc(OC(F)(F)F)c3)c3ccccc32)c1 (stereo not shown) [Example 887]")
"≥ 7.00"
>>> readoutvalue("Cn1cnc(S(=O)(=O)N2CC(COc3ccc(F)cc3)C(c3ccccn3)C2)c1 (stereo not shown) [Example 886]")
"≥ 6.00"
>>> readoutvalue("Cn1cc(S(=O)(=O)N2CC3c4ccccc4CC3(Nc3cc(C(F)(F)F)ncn3)C2)nn1 (stereo not shown) [Example 891]")
"≥ 7.00"
>>> readoutvalue("Cn1cnc(S(=O)(=O)N2C[C@H](Nc3cccc(OC(F)(F)F)c3)[C@@H](C3OCC(C)(C)CO3)C2)c1 [Example 900]")
"≥ 6.00"
>>> readoutvalue("C=C(C)C1CCC(C)C(N[C@H]2CN(S(=O)(=O)c3cn(C)cn3)C[C@@H]2c2ccc(F)cc2)C1 (stereo partly shown) [Example 867]")
"≥ 7.00"

Then there is this molecule:
What does the record list as pKi for CCCCc1cn([C@H]2CN(S(=O)(=O)c3cn(C)cn3)C[C@@H]2c2ccccc2)nn1 [Example 668] ?
≥ 5.00
